Below is a list of entries, each paired with its recorded self-aminoacylation value.
System: biotinyl-Ile-oxazolone
protocol-description: self-aminoacylation, catalytic enhancement (BIO) (fold over background); higher = more active; k-Seq, kA / k0A0; sequences stand for … in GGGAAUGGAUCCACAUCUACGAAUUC…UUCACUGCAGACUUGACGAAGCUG
Variants at the floor of the assay were thinned out.
measured-metric: self-aminoacylation

1. AAGUAUGCUAAUAGUCGCGAG [Fam3.1 aminoacylation ribozyme variant] :: 2.14
2. AUUACUCUGGUCAUCGAGUGU [Fam2.1 aminoacylation ribozyme variant] :: 2.52
3. AUUGACCCAGGUCAUCGGGUG [Fam2.2 aminoacylation ribozyme variant] :: 3.6
4. AAUCACCUCGGUCAUCGGGUG [Fam2.2 aminoacylation ribozyme variant] :: 4.07
5. AUUGACCUAGGUCAUCGGGUA [Fam2.2 aminoacylation ribozyme variant] :: 20.4
6. AAGUUGGCUAAUAGUCGCAAC [Fam3.1 aminoacylation ribozyme variant] :: 1.75
7. AAGCUCGCUAAUAGUCGCAAG [Fam3.1 aminoacylation ribozyme variant] :: 2.09
8. UACUUUGCUAAUAGUCGCAAG [Fam3.1 aminoacylation ribozyme variant] :: 1.75
9. CCACACUUCCGGCAAUCGGUC [Fam1B.1 aminoacylation ribozyme variant] :: 1.72
10. AUGACCCUGGUCAUCCAGUGA [Fam2.1 aminoacylation ribozyme variant] :: 3.84
11. CUACUUGAAACGAUCGGUCUG [Fam1A.1 aminoacylation ribozyme variant] :: 0.968
12. AUUACCCUGGUCAUGUAGUGA [Fam2.1 aminoacylation ribozyme variant] :: 1.77
13. AGGUUUGCUAAUAGUCGCCAG [Fam3.1 aminoacylation ribozyme variant] :: 1.39
14. AUUCACCUAGGUAAUCAGGUG [Fam2.2 aminoacylation ribozyme variant] :: 0.967
15. CUACUUCAAACAGUCGGUAUG [Fam1A.1 aminoacylation ribozyme variant] :: 0.6
16. AUUCACCUGGGUCAACGGGUG [Fam2.2 aminoacylation ribozyme variant] :: 2.41
17. CCACACUUCAAGCAGUCUGUC [Fam1B.1 aminoacylation ribozyme variant] :: 0.339
18. CCACACUUUCAGCAAUCGGUC [Fam1B.1 aminoacylation ribozyme variant] :: 1.01
